experimental.protocol: Growth inhibition of human FR2 cells assessed as dead cells at 50 uM after 48 hrs by sulforhodamine-B assay relative to control
Type: cell-based
particulars: read-out: GI
MET means recorded inhibition at 48 h, 50 µM is 50% or above; NOT MET means it is below 50%.

The following compounds have reported results that may help.
{"columns": ["compound", "class.assignment"],
 "data": [
  ["C[C@H]1[C@H](C)CC[C@]2(C(=O)OCc3cn(-c4ccccc4[N+](=O)[O-])nn3)CC[C@]3(C)C(=CC[C@@H]4[C@@]5(C)CCC(=O)C(C)(C)[C@@H]5CC[C@]43C)[C@H]12", "NOT MET"],
  ["COc1ccccc1-n1cc(COC(=O)[C@]23CC[C@@H](C)[C@H](C)[C@H]2C2=CC[C@@H]4[C@@]5(C)CCC(=O)C(C)(C)[C@@H]5CC[C@@]4(C)[C@]2(C)CC3)nn1", "NOT MET"],
  ["C[C@H]1[C@H](C)CC[C@]2(C(=O)OCc3cn(-c4ccc(CC#N)cc4)nn3)CC[C@]3(C)C(=CC[C@@H]4[C@@]5(C)CCC(=O)C(C)(C)[C@@H]5CC[C@]43C)[C@H]12", "NOT MET"]
]}

# evaluate next
Would you say C[C@H]1[C@H](C)CC[C@]2(C(=O)OCc3cn(-c4ccc(F)cc4F)nn3)CC[C@]3(C)C(=CC[C@@H]4[C@@]5(C)CCC(=O)C(C)(C)[C@@H]5CC[C@]43C)[C@H]12 shows inhibition at 48 h, 50 µM at minimum 50%?
MET

----------
System: MCF7
experimental.protocol: Growth inhibition of human MCF7 cells after 48 hrs by sulforhodamine-B assay
Type: functional, cell-based
particulars: MCF7, 48 h
measured.property: pIC50
FYI, pIC50 means -log10 of a concentration in mol per litre.

{"columns": ["compound", "assay.system", "pIC50"],
 "data": [
  ["C#CCOC(=O)[C@]12CC[C@@H](C)[C@H](C)[C@H]1C1=CC[C@@H]3[C@@]4(C)CCC(=O)C(C)(C)[C@@H]4CC[C@@]3(C)[C@]1(C)CC2", "MCF7", 4.25],
  ["C[C@H]1[C@H](C)CC[C@]2(C(=O)OCc3cn(-c4ccc(Br)cc4)nn3)CC[C@]3(C)C(=CC[C@@H]4[C@@]5(C)CCC(=O)C(C)(C)[C@@H]5CC[C@]43C)[C@H]12", "MCF7", 4.82],
  ["Cc1ccc(-n2cc(COC(=O)[C@]34CC[C@@H](C)[C@H](C)[C@H]3C3=CC[C@@H]5[C@@]6(C)CCC(=O)C(C)(C)[C@@H]6CC[C@@]5(C)[C@]3(C)CC4)nn2)cc1C", "MCF7", 5.26],
  ["C[C@H]1[C@H](C)CC[C@]2(C(=O)OCc3cn(-c4ccc(F)cc4F)nn3)CC[C@]3(C)C(=CC[C@@H]4[C@@]5(C)CCC(=O)C(C)(C)[C@@H]5CC[C@]43C)[C@H]12", "MCF7", 4.52],
  ["C[C@H]1[C@H](C)CC[C@]2(C(=O)OCc3cn(-c4ccccc4)nn3)CC[C@]3(C)C(=CC[C@@H]4[C@@]5(C)CCC(=O)C(C)(C)[C@@H]5CC[C@]43C)[C@H]12", "MCF7", 4.41]
]}

Requested read-out: pIC50. Entry: C[C@H]1[C@H](C)CC[C@]2(C(=O)OCc3cn(-c4ccc(CC#N)cc4)nn3)CC[C@]3(C)C(=CC[C@@H]4[C@@]5(C)CCC(=O)C(C)(C)[C@@H]5CC[C@]43C)[C@H]12
4.10

Requested read-out: pIC50. Entry: C[C@H]1[C@H](C)CC[C@]2(C(=O)O)CC[C@]3(C)C(=CC[C@@H]4[C@@]5(C)CC[C@H](O)C(C)(C)[C@@H]5CC[C@]43C)[C@H]12
4.43

Requested read-out: pIC50. Entry: C[C@H]1[C@H](C)CC[C@]2(C(=O)OCc3cn(-c4ccccc4I)nn3)CC[C@]3(C)C(=CC[C@@H]4[C@@]5(C)CCC(=O)C(C)(C)[C@@H]5CC[C@]43C)[C@H]12
4.89

----------
This listing pairs compounds with measured inhibition at 48 h, 10 µM.
experimental.protocol: Growth inhibition of human FR2 cells assessed as dead cells at 10 uM after 48 hrs by sulforhodamine-B assay relative to control
Assay type: cell-based
particulars: read-out: GI
Please reply with the bare figure in % and do not write the unit itself.

{"columns": ["compound", "measured.property", "measured.result"],
 "data": [
  ["C[C@H]1[C@H](C)CC[C@]2(C(=O)OCc3cn(-c4ccc(CC#N)cc4)nn3)CC[C@]3(C)C(=CC[C@@H]4[C@@]5(C)CCC(=O)C(C)(C)[C@@H]5CC[C@]43C)[C@H]12", "inhibition at 48 h, 10 µM", 14],
  ["C#CCOC(=O)[C@]12CC[C@@H](C)[C@H](C)[C@H]1C1=CC[C@@H]3[C@@]4(C)CCC(=O)C(C)(C)[C@@H]4CC[C@@]3(C)[C@]1(C)CC2", "inhibition at 48 h, 10 µM", 33],
  ["C[C@H]1[C@H](C)CC[C@]2(C(=O)OCc3cn(-c4ccccc4)nn3)CC[C@]3(C)C(=CC[C@@H]4[C@@]5(C)CCC(=O)C(C)(C)[C@@H]5CC[C@]43C)[C@H]12", "inhibition at 48 h, 10 µM", 12],
  ["C[C@H]1[C@H](C)CC[C@]2(C(=O)OCc3cn(-c4ccccc4[N+](=O)[O-])nn3)CC[C@]3(C)C(=CC[C@@H]4[C@@]5(C)CCC(=O)C(C)(C)[C@@H]5CC[C@]43C)[C@H]12", "inhibition at 48 h, 10 µM", 9]
]}

Requested read-out: inhibition at 48 h, 10 µM. Entry: Cc1ccc(-n2cc(COC(=O)[C@]34CC[C@@H](C)[C@H](C)[C@H]3C3=CC[C@@H]5[C@@]6(C)CCC(=O)C(C)(C)[C@@H]6CC[C@@]5(C)[C@]3(C)CC4)nn2)cc1C
68

----------
experimental.protocol: Growth inhibition of human FR2 cells assessed as dead cells at 50 uM after 48 hrs by sulforhodamine-B assay relative to control
Format: cell-based
particulars: read-out: GI
This listing pairs compounds with measured inhibition at 48 h, 50 µM.
I'd appreciate it if you wrote the number followed by its unit.

{"columns": ["compound", "inhibition at 48 h, 50 µM"],
 "data": [
  ["C[C@H]1[C@H](C)CC[C@]2(C(=O)OCc3cn(-c4ccccc4I)nn3)CC[C@]3(C)C(=CC[C@@H]4[C@@]5(C)CCC(=O)C(C)(C)[C@@H]5CC[C@]43C)[C@H]12", "56%"]
]}

Requested read-out: inhibition at 48 h, 50 µM. Entry: Cc1ccc(-n2cc(COC(=O)[C@]34CC[C@@H](C)[C@H](C)[C@H]3C3=CC[C@@H]5[C@@]6(C)CCC(=O)C(C)(C)[C@@H]6CC[C@@]5(C)[C@]3(C)CC4)nn2)cc1C
85%

Requested read-out: inhibition at 48 h, 50 µM. Entry: C[C@H]1[C@H](C)CC[C@]2(C(=O)OCc3cn(-c4ccccc4Cl)nn3)CC[C@]3(C)C(=CC[C@@H]4[C@@]5(C)CCC(=O)C(C)(C)[C@@H]5CC[C@]43C)[C@H]12
35%

----------
Test system: MCF7
experimental.protocol: Growth inhibition of human MCF7 cells after 48 hrs by sulforhodamine-B assay
Assay type: functional, cell-based
particulars: MCF7, 48 h
pIC50: −log10 of the molar value.
measured.property: pIC50

Would you please look over these solved cases?
{"columns": ["compound", "measured.property", "measured.result"],
 "data": [
  ["COc1ccccc1-n1cc(COC(=O)[C@]23CC[C@@H](C)[C@H](C)[C@H]2C2=CC[C@@H]4[C@@]5(C)CCC(=O)C(C)(C)[C@@H]5CC[C@@]4(C)[C@]2(C)CC3)nn1", "pIC50", "> 7.00"],
  ["C[C@H]1[C@H](C)CC[C@]2(C(=O)OCc3cn(-c4ccccc4Br)nn3)CC[C@]3(C)C(=CC[C@@H]4[C@@]5(C)CCC(=O)C(C)(C)[C@@H]5CC[C@]43C)[C@H]12", "pIC50", "> 7.00"],
  ["C[C@H]1[C@H](C)CC[C@]2(C(=O)OCc3cn(-c4ccccc4[N+](=O)[O-])nn3)CC[C@]3(C)C(=CC[C@@H]4[C@@]5(C)CCC(=O)C(C)(C)[C@@H]5CC[C@]43C)[C@H]12", "pIC50", "< 4.30"]
]}

Requested read-out: pIC50. Entry: C[C@H]1[C@H](C)CC[C@]2(C(=O)OCc3cn(-c4ccccc4Cl)nn3)CC[C@]3(C)C(=CC[C@@H]4[C@@]5(C)CCC(=O)C(C)(C)[C@@H]5CC[C@]43C)[C@H]12
> 7.00
